Biological target: recombinant human NF-kappaB-inducing kinase (NIK/MAP3K14) (Homo sapiens (Human))
Experiment: Inhibition of auto-phosphorylation of recombinant human NIK/MAP3K14 activity (AlphaScreen)
Assay type: biochemical
Conditions: averaged values over all measurements on all batches
IC50 overview
Please state the value followed by its unit.

* Cc1cc(Nc2nccc(-c3cc(C#N)c4c(c3)[C@@](C)(CO)CN4)n2)n(CC2CCCN(C)C2)n1 (single isomer, unassigned) [Compound 141] | 42 nM

compound CCn1ncc(Nc2nccc(-c3cc(C#N)c4c(c3)[C@@](C)(CO)CN4)n2)c1N1CCOCC1 [Compound 199] , IC50 observed: 3.5 nM

compound Cn1ncc(Nc2nccc(-c3cc(C#N)c4c(c3)[C@@](C)(CO)CN4)n2)c1OC1CC1 [Compound 192] , IC50 observed: 8.1 nM

compound Cc1cc(Nc2nccc(-c3cc(C#N)c4c(c3)[C@@](C)(CO)CN4)n2)n(CC2CCN(CC(=O)O)CC2)n1 [Compound 214] , IC50 observed: 18.6 nM

compound Cc1cc(Nc2nccc(-c3cc(C#N)c4c(c3)[C@@](C)(CO)CN4)n2)n(CC2CCOCC2)n1 [Compound 61] , IC50 observed: 4.4 nM

compound Cc1nc(Nc2nccc(-c3cc(C#N)c4c(c3)[C@@](C)(CO)CN4)n2)sc1C [Compound 148] , IC50 observed: 0.8 nM

compound Cc1c(Nc2nccc(-c3cc(C#N)c4c(c3)[C@@](C)(CO)CN4)n2)cnn1CCN1CCOCC1 [Compound 170] , IC50 observed: 2.2 nM

* * *

Molecular target: recombinant human NF-kappaB-inducing kinase (NIK/MAP3K14) (Homo sapiens (Human))
Test: Inhibition of auto-phosphorylation of recombinant human NIK/MAP3K14 activity (AlphaScreen)
Format: biochemical
Conditions: averaged values over all measurements on all batches
outcome-measure: IC50 (nM)
Just the number in nM, nothing appended.

• Cc1nn(C2CCN(C)CC2)cc1Nc1nccc(-c2cc(C#N)c3c(c2)[C@@](C)(CO)CN3)n1 = 6.8

compound Cc1cc(Nc2nccc(-c3cc(C#N)c4c(c3)[C@@](C)(CO)CN4)n2)n(CCC2CC2)n1 , IC50 observed: 1.6

compound Cc1cc(Nc2nccc(-c3cc(C#N)c4c(c3)[C@@](C)(CO)CN4)n2)n(CC2CCn3ccnc3C2)n1 (mixture of isomers) , IC50 observed: 7.2

compound Cn1ncc(Nc2nccc(-c3cc(C#N)c4c(c3)[C@@](C)(CO)CN4)n2)c1C(=O)N1CCCC1 , IC50 observed: 107

compound CC(C)CCc1c(Nc2nccc(-c3cc(C#N)c4c(c3)[C@@](C)(CO)CN4)n2)cnn1Cc1nccn1C , IC50 observed: 6

compound CN1CCN(Cc2nn(CC(F)F)cc2Nc2nccc(-c3cc(C#N)c4c(c3)[C@@](C)(CO)CN4)n2)CC1 , IC50 observed: 6

compound C[C@]1(CO)CNc2c(C#N)cc(-c3ccnc(Nc4cnn(CCN5CC6COCC6C5)c4N4CCOCC4)n3)cc21 (stereo partly drawn) , IC50 observed: 5.9

* * *

Molecular target: recombinant human NF-kappaB-inducing kinase (NIK/MAP3K14) (Homo sapiens (Human), UniProt Q99558)
Sequence (Q99558 whole entry): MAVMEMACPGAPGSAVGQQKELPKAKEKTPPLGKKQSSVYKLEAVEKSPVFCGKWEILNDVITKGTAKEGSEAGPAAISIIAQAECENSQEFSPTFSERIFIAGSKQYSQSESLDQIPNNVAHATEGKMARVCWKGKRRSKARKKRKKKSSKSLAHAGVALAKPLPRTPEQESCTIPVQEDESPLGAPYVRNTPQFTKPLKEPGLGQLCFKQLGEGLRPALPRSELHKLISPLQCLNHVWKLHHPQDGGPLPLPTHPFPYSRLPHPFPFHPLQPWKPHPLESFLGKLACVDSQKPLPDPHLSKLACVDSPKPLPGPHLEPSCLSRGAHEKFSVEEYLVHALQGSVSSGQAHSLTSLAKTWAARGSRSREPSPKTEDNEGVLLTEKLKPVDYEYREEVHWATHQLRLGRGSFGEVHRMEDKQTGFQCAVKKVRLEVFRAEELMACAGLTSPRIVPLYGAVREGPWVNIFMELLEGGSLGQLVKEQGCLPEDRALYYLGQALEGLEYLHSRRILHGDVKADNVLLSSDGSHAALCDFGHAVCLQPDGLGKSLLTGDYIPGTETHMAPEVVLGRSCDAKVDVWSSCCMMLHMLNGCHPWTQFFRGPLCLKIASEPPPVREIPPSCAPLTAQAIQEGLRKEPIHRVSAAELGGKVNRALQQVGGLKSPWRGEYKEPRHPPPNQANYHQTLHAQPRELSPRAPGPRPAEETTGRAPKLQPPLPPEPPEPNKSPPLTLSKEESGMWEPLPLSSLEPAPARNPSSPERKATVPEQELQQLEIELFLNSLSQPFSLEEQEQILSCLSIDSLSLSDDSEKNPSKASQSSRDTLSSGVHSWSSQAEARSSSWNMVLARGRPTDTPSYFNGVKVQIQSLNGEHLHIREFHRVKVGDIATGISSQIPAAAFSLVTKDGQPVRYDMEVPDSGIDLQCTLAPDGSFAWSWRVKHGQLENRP
Test: Inhibition of auto-phosphorylation of recombinant human NIK/MAP3K14 activity (AlphaScreen)
Format: biochemical
Settings: averaged values over all measurements on all batches
log10(IC50) overview
Note: values are log10 of IC50 expressed in nM.

Solved entries:
* Cc1cc(Nc2nccc(-c3cc(C#N)c4c(c3)[C@@](C)(CO)CN4)n2)nn1CCC1CC1 [Compound 95] | 0.20
* Cn1nc(Cl)cc1Nc1nccc(-c2cc(C#N)c3c(c2)[C@@](C)(CO)CN3)n1 [Compound 41] | 0.32
* CC(C)CCc1c(Nc2nccc(-c3cc(C#N)c4c(c3)[C@@](C)(CO)CN4)n2)cnn1CCO [Compound 127] | 0.30
* COCCCn1nc(C)cc1Nc1nccc(-c2cc(C#N)c3c(c2)[C@@](C)(COC(C)=O)CN3)n1 [Compound 177] | 1.00
* C[C@]1(CO)CNc2c(C#N)cc(-c3ccnc(Nc4cnn(CCN5CCOCC5)c4Cl)n3)cc21 [Compound 208] | 0.30
* Cc1cc(Nc2nccc(-c3cc(C#N)c4c(c3)[C@@](C)(CO)CN4)n2)n(CC2COCCO2)n1 (single isomer, unassigned) [Compound 85] | 0.99
* COC[C@H](O)Cn1ncc(Nc2nccc(-c3cc(C#N)c4c(c3)[C@@](C)(CO)CN4)n2)c1OC [Compound 221] | 1.17
* Cc1cc(Nc2nccc(-c3cc(C#N)c4c(c3)[C@@](C)(CO)CN4)n2)n(CCC(C)(C)O)n1 [Compound 108] | 0.61
* COCCCn1nccc1Nc1nccc(-c2cc(C#N)c3c(c2)[C@](C)(CO)CN3)n1 [Compound 47] | 1.64
* COCCCn1nccc1Nc1nccc(-c2cc(C#N)c3c(c2)C(C)(CO)CN3)n1 (centres unmarked) [Compound 27] | 1.11

compound CC(C)(C)c1cc(Nc2nccc(-c3cc(C#N)c4c(c3)C(C)(CO)CN4)n2)n(CCO)n1 (centres unmarked) [Compound 10] , log10(IC50) observed: 1.11

compound Cc1cc(Nc2nccc(-c3cc(C#N)c4c(c3)[C@@](C)(CO)CN4)n2)nn1CC1CCCCO1 (some centres unmarked) [Compound 70] , log10(IC50) observed: 0.58

compound CC(C)Cn1nc(CO)cc1Nc1nccc(-c2cc(C#N)c3c(c2)[C@@](C)(CO)CN3)n1 [Compound 151] , log10(IC50) observed: 0.30

* * *

System: P-IKKα levels in L363 cells
Assay: Effect of compounds on P-IKKα levels in L363 (NIK translocated multiple myeloma) cells
Type: cell-based, human
Conditions: Homo sapiens, L-363, read-out: Inhibition of pIKKα_L-363 (IC50 (nM))
outcome-measure: IC50 (nM)
Just the number in nM, nothing appended.

compound C[C@]1(CO)CNc2c(C#N)cc(-c3ccnc(Nc4cnn(CCN5CC6COCC6C5)c4N4CCOCC4)n3)cc21 (stereo partly shown) [Compound 200] , IC50 observed: 20

* * *

Target: recombinant human NF-kappaB-inducing kinase (NIK/MAP3K14) (Homo sapiens (Human))
Test: Inhibition of auto-phosphorylation of recombinant human NIK/MAP3K14 activity (AlphaScreen)
Format: biochemical
Conditions: averaged values over all measurements on all batches
outcome-measure: IC50 (nM)
Just the number in nM, nothing appended.

Solved entries:
- CN1CCOCC1c1cc(Nc2nccc(-c3cc(C#N)c4c(c3)[C@@](C)(CO)CN4)n2)nn1C (mixture of isomers): 168
- Cn1cc(Nc2nccc(-c3cc(C#N)c4c(c3)[C@@](C)(CO)CN4)n2)c(CN2CCOCC2)n1: 15
- Cn1nc(Nc2nccc(-c3cc(C#N)c4c(c3)C(C)(CO)CN4)n2)cc1C1CC1 (stereo not shown): 4.4

Continue with the next compound.
compound CC(C)Cn1nc(Cl)cc1Nc1nccc(-c2cc(C#N)c3c(c2)[C@@](C)(CO)CN3)n1 , IC50 observed: 3.8

* * *

Molecular target: recombinant human NF-kappaB-inducing kinase (NIK/MAP3K14) (Homo sapiens (Human))
Assay: Inhibition of auto-phosphorylation of recombinant human NIK/MAP3K14 activity (AlphaScreen)
Assay type: biochemical
Conditions: averaged values over all measurements on all batches
IC50 overview
Just the number in nM, nothing appended.

Solved entries:
• Cn1nc(C2(C)COC2)cc1Nc1nccc(-c2cc(C#N)c3c(c2)C(C)(CO)CN3)n1 (stereo not shown) [Compound 5] = 5.4
• CNC(=O)c1nn(CC(F)F)cc1Nc1nccc(-c2cc(C#N)c3c(c2)[C@@](C)(CO)CN3)n1 [Compound 187] = 7.2
• Cc1nn(C2CCOCC2)cc1Nc1nccc(-c2cc(C#N)c3c(c2)[C@@](C)(CO)CN3)n1 [Compound 74] = 3
• CC(C)Cc1nn(C)cc1Nc1nccc(-c2cc(C#N)c3c(c2)[C@@](C)(CO)CN3)n1 [Compound 97] = 2
• CN(C)C(=O)Cn1nc(Cl)cc1Nc1nccc(-c2cc(C#N)c3c(c2)[C@@](C)(CO)CN3)n1 [Compound 116] = 9.3
• CC(C)CCc1c(Nc2nccc(-c3cc(C#N)c4c(c3)[C@@](C)(CO)CN4)n2)cnn1C[C@@H]1COCCO1 [Compound 121] = 5

compound CC(C)n1nc(Nc2nccc(-c3cc(C#N)c4c(c3)C(C)(CO)CN4)n2)cc1C(=O)NC1CCOCC1 (stereo not shown) [Compound 35] , IC50 observed: 7.9

* * *

Biological target: recombinant human NF-kappaB-inducing kinase (NIK/MAP3K14) (Homo sapiens (Human), UniProt Q99558)
Assay: Inhibition of auto-phosphorylation of recombinant human NIK/MAP3K14 activity (AlphaScreen)
Format: biochemical
Settings: averaged values over all measurements on all batches
Returns: string. Value is TRUE if measured IC50 is below 3 nM, and FALSE if it is greater than or equal to it.

See these solved cases before continuing.
* CC(C)n1nc(C(=O)N(C)C2CC2)cc1Nc1nccc(-c2cc(C#N)c3c(c2)[C@@](C)(CO)CN3)n1 | FALSE
* Cn1ccc(Nc2ncc(F)c(-c3cc(C#N)c4c(c3)[C@@](C)(CO)CN4)n2)n1 | TRUE
* Cc1nn(CC2CCOCC2)cc1Nc1nccc(-c2cc(C#N)c3c(c2)[C@@](C)(CO)CN3)n1 | FALSE
* CC(C)Oc1nn(CCN2CCOCC2)cc1Nc1nccc(-c2cc(C#N)c3c(c2)[C@@](C)(CO)CN3)n1 | FALSE
* Cn1nc(C2CCOCC2)cc1Nc1nccc(-c2cc(C#N)c3c(c2)[C@@](C)(CO)CN3)n1 | TRUE
* CC(C)CCc1nn(CCN(C)C)cc1Nc1nccc(-c2cc(C#N)c3c(c2)[C@@](C)(CO)CN3)n1 | FALSE
* Cn1ccc(Nc2ncc(F)c(-c3cc(C#N)c4c(c3)C(C)(CO)CN4)n2)n1 (centres unmarked) | TRUE
* Cc1cc(Nc2nccc(-c3cc(C#N)c4c(c3)[C@@](C)(CO)CN4)n2)n(CC2CCN(CC(F)(F)F)CC2)n1 | FALSE

Next:
Problem: Consider CC(C)CCc1c(Nc2nccc(-c3cc(C#N)c4c(c3)[C@@](C)(CO)CN4)n2)cnn1CC1CCN(CC(F)(F)F)CC1 . Does its IC50 lie strictly below 3 nM?
Solution: FALSE
